Parameter Kd: see the listing below.
Biological target: T1, human ALPPL2 (recombinant protein) (human, UniProt P10696 20-503)
T1 chain: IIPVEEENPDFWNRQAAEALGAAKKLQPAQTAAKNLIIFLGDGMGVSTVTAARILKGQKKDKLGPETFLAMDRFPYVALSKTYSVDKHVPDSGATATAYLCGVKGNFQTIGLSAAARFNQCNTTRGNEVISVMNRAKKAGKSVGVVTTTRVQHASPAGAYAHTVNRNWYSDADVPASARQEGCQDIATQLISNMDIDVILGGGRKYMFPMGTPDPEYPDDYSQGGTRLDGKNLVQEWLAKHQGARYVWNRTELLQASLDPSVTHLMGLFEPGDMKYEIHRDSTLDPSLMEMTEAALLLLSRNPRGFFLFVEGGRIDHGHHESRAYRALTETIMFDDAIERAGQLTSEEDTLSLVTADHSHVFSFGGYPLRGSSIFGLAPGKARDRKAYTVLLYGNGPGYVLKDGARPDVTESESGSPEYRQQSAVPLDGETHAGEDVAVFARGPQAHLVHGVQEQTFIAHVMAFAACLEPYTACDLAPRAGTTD
Experiment: BLI; single concentration
Express your answer as a number followed by its unit.

| binder | Kd |
| --- | --- |
| AB2C131 (antibody, V domains shown, Rabbit antibody cloned from a single B cell) VH: QSLEESGGGLVQPEGSLTLTCTASGFSFSSSYYMCWVRQAPGKGLEWIACIYAGSTFSTYYASWAKGRFTISKTSSTTVTLQMTSLTAADTATYFCARSDSYYTYGYAGYAYAIFNLWGPGTLVTVSS VL: LVMTQTPSSVSAAVGGTVTINCQASESIYSNLAWYQQKPGQPPKLLIYLASTLASGVPSRFKGSGSGTEFTLTISDLECADAATYYCQSAYYSSSADIAFGGGTEVVVK | 8 nM |
| AB2C102 (antibody, V domains shown, Rabbit antibody cloned from a single B cell) VH: QQQLEESGGDLVQPGASLTLTCTASGFSFNSNYWMCWGRQAPGKGLEWIGCILFGNTDTYYANWAKGRFTISKTSSTTVTLQMTSLTAADTATYFCARSVSGVGSAWNLWGPGTLVTVSS VL: IVMTQTPSSKSVPVGDTVTINCQASESVYNNNHLAWYQQKPGQSPKLLIYLASILDSGVPSRFKGSGSGTQFTLTISDVVCDDAATYYCAGYKGITIDGSAFGGGTELVVK | 0.5 nM |
| AB1C21 (antibody, V domains shown, Rabbit antibody cloned from a single B cell) VH: QQQLVESGGGLVKPGASLTLTCKASGFSFSSGYDMCWVRQAPGKGLEWIACIYTGDGSTYYASWARGRFTISKTSSTTVTLQMTSLTAADTATYFCAREDVSSGDYTFNLWGPGTLVTVSS VL: YDMTQTPASVEVTVGGTVTIKCQASEDIYSGLAWYQQKPGQRPKLLIYKASNLASGVPSRFSGSGSGTEFTLTISGVECADAATYYCQQGVTYSNVDNTFGGGTEVVVK | 1.4 nM |
| AB2C124 (antibody, V domains shown, Rabbit antibody cloned from a single B cell) VH: QEQLVESGGGLVQPEGSLTLTCTASGFSFSSSYFMCWVRQAPGKGLEWIACIYTGDGNNYYASWAKGRFTISKTSSTTVTLQMTSLTAADTATYFCSRGGSYYAYGYAGYDYYPDAFDYWGPGTLVTVSS VL: DIVMTQTPASVEVAVGGTVTIKCQASQSISSYLSWYQQKPGQPPKLLIYRASTLASGVPSRFKGSGSGTQFTLTISDLECADAATYYCQSYYYSSSGSYGFGGGTEVVVK | 1.6 nM |

Lab note: next binder to report on.
Input line: Param item = AB2C133 (antibody, V domains shown, Rabbit antibody cloned from a single B cell) VH: QSLEESGGDLVKPGASLTLTCTASGLDFSSSYWICWVRQAPGKGLEWIGCIKTATETTVYASWAKGRFTISKTSSTTVTLQMTSLTAADTATYLCAKTYADNGGYINLWGPGTLVTVSS VL: LVMTQTPSSVSAAVGGTVTINCQASQNIYNNLAWYQQKPGQRPKLLIYGASNLESGVPSRFKGSGSGTEYTLTISDLECDDAATYYCQSADLTSSINVFGGGTEVVVK ; retrieve measured Kd.
Output line: 1 nM
